- Test system: morningglory
- Method Description: Test C pre-/postemergence herbicide test
- Assay type: in vivo, Ipomoea coccinea
- Measurement Parameters: Preemergence, 250 g ai/ha
# Plant response rating (scale of 0 to 100), Morningglory listing for each entry below
No unit in the answer, only the number.

{"Compound": "O=C1NCC(c2cccc(OC(F)(F)F)c2)C1C(=O)Nc1ccccc1F (stereo not shown)", "Reported Result": 25}
{"Compound": "O=C1NCC(c2ccc(F)c(C(F)(F)F)c2)C1C(=O)Nc1cccc(F)c1F (racemic)", "Reported Result": 0}
{"Compound": "O=C1NC[C@H](c2cccc(C(F)(F)F)c2)[C@H]1C(=O)Nc1ccccc1F", "Reported Result": 40}

Query string: Report Plant response rating (scale of 0 to 100), Morningglory for O=C1NCC(c2cccc(C(F)(F)F)c2)C1C(=O)Nc1ccc(F)c(F)c1F (stereo not shown) tested on morningglory.
Result string: 35

###

- Test system: ryegrass, Italian
- Method Description: Test A pre-/postemergence herbicide test
- Assay type: in vivo, Lolium multiflorum
- Measurement Parameters: Postemergence, 125 g ai/ha; 0 to 100 scale, 0 is no effect, 100 is complete control
# Plant response rating, Ryegrass, Italian listing for each entry below
No unit in the answer, only the number.

Examples from the recorded data:
{"Compound": "COc1ccc(C2CNC(=O)C2C(=O)Nc2ccccc2F)cc1C(F)(F)F (racemic)", "Reported Result": 0}
{"Compound": "O=C1NCC(c2cccc(S(F)(F)(F)(F)F)c2)C1C(=O)Nc1ccccc1F (racemic)", "Reported Result": 40}
{"Compound": "O=C1NCC(c2cc(F)cc(F)c2)C1C(=O)Nc1ccc(F)cc1F (racemic)", "Reported Result": 20}

Query string: Report Plant response rating, Ryegrass, Italian for O=C1NCC(c2cccc(C(F)F)c2)C1C(=O)Nc1cccc(F)c1F (racemic) tested on ryegrass, Italian.
Result string: 40

Query string: Follow-up entry: CCc1cccc(C2CNC(=O)C2C(=O)Nc2ccccc2F)c1 (racemic)
Result string: 20

###

- System: corn
- Method Description: Test A pre-/postemergence herbicide test
- Assay type: in vivo, Zea mays
- Measurement Parameters: Postemergence, 125 g ai/ha; 0 to 100 scale, 0 is no effect, 100 is complete control
# Plant response rating, Corn listing for each entry below
No unit in the answer, only the number.

Query string: Query: Plant response rating, Corn; subject: Cc1cccc(NC(=O)C2C(=O)NCC2c2cccc(C(F)(F)F)c2)c1F (racemic) [Compound 184]
Result string: 0

Query string: Follow-up entry: O=C1NCC(c2ccc(OC(F)(F)F)cc2)C1C(=O)Nc1ccccc1F (racemic) [Compound 256]
Result string: 0

Query string: Follow-up entry: COc1ccc(C2CNC(=O)C2C(=O)Nc2ccccc2F)cc1C(F)(F)F (racemic) [Compound 209]
Result string: 0

Query string: Follow-up entry: O=C1NCC(c2ccc(F)cc2)C1C(=O)Nc1ccccc1F (centres unmarked) [Compound 239]
Result string: 0

Query string: Follow-up entry: O=C1NCC(c2ccc(F)c(F)c2)C1C(=O)Nc1cccc(C(F)(F)F)n1 (racemic) [Compound 245]
Result string: 0

Query string: Follow-up entry: O=C1NCC(c2cc(F)cc(F)c2)C1C(=O)Nc1ccccc1Cl (racemic) [Compound 280]
Result string: 0

Query string: Follow-up entry: O=C1NCC(c2ccc(C(F)(F)F)cc2)C1C(=O)Nc1cccc(F)c1F (racemic) [Compound 202]
Result string: 80

Query string: Follow-up entry: O=C1NCC(c2ccc(Cl)cc2)C1C(=O)Nc1cccc(F)c1F (centres unmarked) [Compound 218]
Result string: 20

###

- System: barnyardgrass
- Method Description: Test C pre-/postemergence herbicide test
- Format: in vivo, Echinochloa crus-galli
- Measurement Parameters: Preemergence, 125 g ai/ha; scale 0 to 100 (0 no effect, 100 complete control)
# Plant response rating, Barnyardgrass listing for each entry below
No unit in the answer, only the number.

Examples from the recorded data:
{"Compound": "CN1CC(c2cccc(C(F)(F)F)c2)C(C(=O)Nc2cccc(F)c2F)C1=O (centres unmarked) [Compound 305]", "Endpoint Label": "Plant response rating, Barnyardgrass", "Reported Result": 95}
{"Compound": "O=C1NC[C@H](c2cccc(C(F)(F)F)c2)[C@H]1C(=O)Nc1cccc(F)c1F [Compound 206]", "Endpoint Label": "Plant response rating, Barnyardgrass", "Reported Result": 95}
{"Compound": "O=C1NCC(c2cccc(Br)c2)C1C(=O)Nc1ccc(F)c(F)c1F (centres unmarked) [Compound 310]", "Endpoint Label": "Plant response rating, Barnyardgrass", "Reported Result": 90}
{"Compound": "O=C1NCC(c2cccc(C(F)(F)F)c2)C1C(=O)Nc1ccc(F)c(F)c1F (centres unmarked) [Compound 345]", "Endpoint Label": "Plant response rating, Barnyardgrass", "Reported Result": 95}

Query string: Report Plant response rating, Barnyardgrass for O=C1NCC(c2ccc(OC(F)F)cc2)C1C(=O)Nc1cccc(F)c1F (racemic) [Compound 350] tested on barnyardgrass.
Result string: 90

###

- Tested on: ducksalad
- Method Description: Test C flooded paddy test
- Type: in vivo, Heteranthera limosa
- Measurement Parameters: Flood; 250 g ai/ha; scale 0 to 100
Endpoint Label: Plant response rating, Ducksalad
No unit in the answer, only the number.

Examples from the recorded data:
{"Compound": "O=C1NCC(c2ccc(F)c(F)c2)C1C(=O)Nc1cccc(F)c1F (stereo not drawn)", "Plant response rating, Ducksalad": 100}
{"Compound": "O=C1NCC(c2ccc(F)c(C(F)(F)F)c2)C1C(=O)Nc1cccc(F)c1F (racemic)", "Plant response rating, Ducksalad": 95}
{"Compound": "O=C1NCC(c2ccc(Cl)c(F)c2)C1C(=O)Nc1cccc(F)c1F (stereo not drawn)", "Plant response rating, Ducksalad": 95}
{"Compound": "O=C1NCC(c2ccc(Cl)c(Cl)c2)C1C(=O)Nc1ccccc1F (racemic)", "Plant response rating, Ducksalad": 85}
{"Compound": "Cc1ccccc1NC(=O)C1C(=O)NCC1c1ccc(F)c(F)c1 (racemic)", "Plant response rating, Ducksalad": 0}

Turning to the following compound.
Query string: Report Plant response rating, Ducksalad for O=C1NCC(c2cccc(Cl)c2)C1C(=O)Nc1ccccc1F (racemic) tested on ducksalad.
Result string: 85

###

- System: oilseed rape
- Method Description: Test C pre-/postemergence herbicide test
- Format: in vivo, Brassica napus
- Measurement Parameters: Preemergence, 250 g ai/ha
Endpoint Label: Plant response rating (scale of 0 to 100), Oilseed Rape
No unit in the answer, only the number.

{"Compound": "O=C1NCC(c2ccc(C(F)(F)F)cc2)C1C(=O)Nc1ccccc1F (stereo not drawn)", "Reported Result": 90}

Query string: Query: Plant response rating (scale of 0 to 100), Oilseed Rape; subject: O=C1NC[C@H](c2cccc(C(F)(F)F)c2)[C@H]1C(=O)Nc1ccccc1F
Result string: 60

Query string: Follow-up entry: O=C1NCC(c2cccc(OC(F)F)c2)C1C(=O)Nc1ccccc1F (stereo not drawn)
Result string: 85

Query string: Follow-up entry: O=C1NCC(c2ccc(F)cc2)C1C(=O)Nc1ccc(F)c(F)c1F (racemic)
Result string: 90

Query string: Follow-up entry: Cc1ccccc1NC(=O)C1C(=O)NCC1c1cccc(C(F)(F)F)c1 (racemic)
Result string: 40

Query string: Follow-up entry: O=C1NCC(c2ccc(F)c(F)c2)C1C(=O)Nc1cccc(F)c1F (racemic)
Result string: 80

###

# Plant response rating, Kochia listing for each entry below
- Test system: kochia
- Method Description: Test A pre-/postemergence herbicide test
- Type: in vivo, Kochia scoparia
- Measurement Parameters: Postemergence, 125 g ai/ha; visual rating on 0 to 100 scale (0 no effect, 100 complete control), approx. 10 days
No unit in the answer, only the number.

Examples from the recorded data:
{"Compound": "O=C1NCC(c2cnn(CC(F)(F)F)c2)C1C(=O)Nc1ccccc1F (stereo not shown)", "Endpoint Label": "Plant response rating, Kochia", "Reported Result": 0}
{"Compound": "O=C1NCC(c2ccc(Br)c(Br)c2)C1C(=O)Nc1ccccc1Cl (stereo not shown)", "Endpoint Label": "Plant response rating, Kochia", "Reported Result": 0}
{"Compound": "O=C1NCC(c2cccc(C(F)(F)F)c2)C1C(=O)Nc1ccc(F)c(F)c1F (stereo not shown)", "Endpoint Label": "Plant response rating, Kochia", "Reported Result": 50}
{"Compound": "O=C1NCC(c2cccc(-n3ccc(C(F)(F)F)n3)c2)C1C(=O)Nc1cccc(F)c1F (stereo not shown)", "Endpoint Label": "Plant response rating, Kochia", "Reported Result": 0}
{"Compound": "O=C1NCC(c2ccc(Cl)o2)C1C(=O)Nc1cccc(F)c1F (stereo not shown)", "Endpoint Label": "Plant response rating, Kochia", "Reported Result": 0}
{"Compound": "CN1CC(c2cccc(C(F)(F)F)c2)C(C(=O)Nc2cccc(F)c2F)C1=O (stereo not shown)", "Endpoint Label": "Plant response rating, Kochia", "Reported Result": 30}
{"Compound": "CSc1cccc(C2CNC(=O)C2C(=O)Nc2ccccc2F)c1 (stereo not shown)", "Endpoint Label": "Plant response rating, Kochia", "Reported Result": 0}
{"Compound": "O=C1NCC(c2cccc(OC(F)F)c2)C1C(=O)Nc1ccccc1F (stereo not shown)", "Endpoint Label": "Plant response rating, Kochia", "Reported Result": 40}

Query string: Query: Plant response rating, Kochia; subject: O=C1NCC(c2ccc(SC(F)(F)F)cc2)C1C(=O)Nc1ccc(F)c(F)c1F (stereo not shown)
Result string: 0

Query string: Follow-up entry: O=C1NCC(c2cnn(CC(F)(F)F)c2)C1C(=O)Nc1ccccc1C(F)(F)F (stereo not shown)
Result string: 0
